Data origin, for the record: ChEMBL document CHEMBL2163201

experiment: Equilibrium solubility of the compound in DMSO preincubated for 4 hrs; format: physicochemical
Short version: solubility at 4 h at least 200 µM is 1 (yes), less is 0 (no).

Observe how each entry below is paired with its result.
[[record]]
entry_smiles = "CCN(CCO)C(=O)c1cc2cccnn2c1-c1ccc(C(F)(F)F)cc1"
category = "0 (no)"

[[record]]
entry_smiles = "O=C(Cc1cc2cccnn2c1-c1cccc(C(F)(F)F)c1)N1CCC[C@@H]1CO"
category = "1 (yes)"

[[record]]
entry_smiles = "CCN(CCO)C(=O)c1cc2ccncn2c1-c1cccc(C(F)(F)F)c1"
category = "1 (yes)"

[[record]]
entry_smiles = "CCN(CCO)C(=O)c1cc2cccnn2c1-c1cccc(C(=O)Nc2ccccc2)c1"
category = "0 (no)"

[[record]]
entry_smiles = "CCN(CCO)C(=O)c1cc2cc(OC)cnn2c1-c1cccc(C(F)(F)F)c1"
category = "0 (no)"

[[record]]
entry_smiles = "CCN(Cc1ccn[nH]1)C(=O)c1cc2cccnn2c1-c1cccc(C(F)(F)F)c1"
category = "0 (no)"

[[record]]
entry_smiles = "CCN(CCO)C(=O)c1cc2ccccn2c1-c1cccc(C(F)(F)F)n1"
category = "1 (yes)"

[[record]]
entry_smiles = "CCN(CCO)C(=O)c1cc2c(C)ccnn2c1-c1cccc(C(F)(F)F)c1"
category = "0 (no)"


Then this molecule:
Inquiry: Textbook exercise: given the entry CCN(CCO)C(=O)c1cc2ccccn2c1-c1cccc(OC)n1 , state whether its solubility at 4 h is greater than or equal to 200 µM.
Reply text: 0 (no)

* * *

assay: Equilibrium solubility of the compound in DMSO preincubated for 4 hrs; type: physicochemical
quantity name: solubility at 4 h (µM)
Numbers only, in µM.

[[record]]
entry_smiles = "CCN(CCO)C(=O)c1cc2cccnn2c1Cc1cccc(C(F)(F)F)c1"
quantity_name = "solubility at 4 h"
unit_descriptor = "µM"
quantitative_readout = 170

[[record]]
entry_smiles = "CCCN(CCO)C(=O)c1cc2ccccn2c1-c1ccccc1"
quantity_name = "solubility at 4 h"
unit_descriptor = "µM"
quantitative_readout = 280

[[record]]
entry_smiles = "CCN(CCO)C(=O)c1nc2cccnc2n1-c1cccc(C(F)(F)F)c1"
quantity_name = "solubility at 4 h"
unit_descriptor = "µM"
quantitative_readout = 24

[[record]]
entry_smiles = "CCN(CCO)C(=O)c1cc2ccccn2c1-c1cccc(C)c1"
quantity_name = "solubility at 4 h"
unit_descriptor = "µM"
quantitative_readout = 260


solubility at 4 h for O=C(c1cc2cccnn2c1-c1cccc(C(F)(F)F)c1)N1CCC[C@H]1CO is 360

* * *

Exercise: state measured solubility at 4 h for each of the compounds provided.
assay: Equilibrium solubility of the compound in DMSO preincubated for 4 hrs; format: physicochemical
Answers are plain numbers, in µM.

These recorded examples may help you get a feel for the data.
[[record]]
compound = "CCN(CCO)C(=O)c1cc2ccc(C)nn2c1-c1cccc(C(F)(F)F)c1"
unit_descriptor = "µM"
quantitative_readout = 28

[[record]]
compound = "CCN(CCO)C(=O)c1nc2ccccn2c1-c1cccc(C(F)(F)F)c1"
unit_descriptor = "µM"
quantitative_readout = 270

[[record]]
compound = "CCN(CCO)C(=O)c1cc2cccnn2c1-c1cccc(C)c1"
unit_descriptor = "µM"
quantitative_readout = 330


Provide the reported solubility at 4 h of each entry below, same order.
1. CCN(CCO)C(=O)c1cc2cccnn2c1-c1cccc(OC)c1
2. CCN(CCO)C(=O)c1cc2cc(C)cnn2c1-c1cccc(C(F)(F)F)c1
3. CCN(CCO)C(=O)c1cc2ccccn2c1-c1cccc(OC)c1
4. COc1cccc(-c2c(C(=O)N3CCCCC3CO)cc3ccccn23)c1 (stereo unspecified)
5. N#Cc1cccc(-c2c(C(=O)N3CCCCC3CO)cc3ccccn23)c1 (stereo unspecified)

Reply text:
340
190
150
260
250
